Property: Kd; scope: individual compounds
- target or system: His-labeled STING (Homo sapiens, UniProt Q86WV6, H232R)
- Sequence (Q86WV6 138-379 H232R): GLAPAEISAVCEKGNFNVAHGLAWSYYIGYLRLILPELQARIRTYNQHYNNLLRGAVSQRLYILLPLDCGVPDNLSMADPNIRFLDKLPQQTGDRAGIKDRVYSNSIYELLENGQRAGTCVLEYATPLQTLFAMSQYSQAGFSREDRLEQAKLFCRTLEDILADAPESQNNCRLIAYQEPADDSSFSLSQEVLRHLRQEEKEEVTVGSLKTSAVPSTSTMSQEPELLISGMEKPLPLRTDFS
- test name: Microscale thermophoresis (MST) analysis of STING modulators with 50 nM 2,3-cGAMP (Example 2)
- Assay type: binding
- condition notes: compounds incubated with 50 nM 2,3-cGAMP, first of two binding events, read-out: Dissociation Constant Kd1

# annotated cases, reported Kd shown
Cc1c(Cl)cccc1Nc1ncccc1CN | 0.0001 to 10 µM
CCCOC(=O)c1cccnc1Nc1cccc(Cl)c1C | 0.0001 to 10 µM
Cc1c(Cl)cccc1Nc1ccccc1C(=O)OCC(O)CO (centres unmarked) | 0.0001 to 10 µM
NC(=O)NC1NC(=O)NC1=O (centres unmarked) | 0.0001 to 10 µM

Pending compound:
Query: I have this compound here, COC(=O)c1cccnc1Nc1cccc(Cl)c1C , and I need its recorded Kd.
Reply: 0.0001 to 10 µM
